Target: FXR (Homo sapiens)
Sequence (Q96RI1 262-486 limits assumed): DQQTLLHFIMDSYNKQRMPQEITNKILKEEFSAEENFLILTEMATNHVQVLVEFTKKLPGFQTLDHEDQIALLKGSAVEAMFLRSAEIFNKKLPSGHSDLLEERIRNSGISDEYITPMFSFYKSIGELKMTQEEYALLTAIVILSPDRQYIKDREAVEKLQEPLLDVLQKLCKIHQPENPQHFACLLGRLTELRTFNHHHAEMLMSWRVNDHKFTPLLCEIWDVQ
Experiment: GeneBLAzer FXR cell-based antagonistic assay (in presence of 400 nM GW4064)
Design: the Gal4 DBD was fused to the LBD of FXR in this assay; host or cells: GeneBLAzer FXR-UAS-bla HEK 293T cells
endpoint-name: FXR antagonistic activity, SAR statement in words

COCCc1nn(Cc2cccc(OC)c2)cc1C(=O)Nc1ccc(C)c(S(=O)(=O)N2CCOCC2)c1 [Compound 4s] :: loss of potency
COCCc1nn(C(C)C)cc1C(=O)Nc1ccc(C)c(S(=O)(=O)N2CCOCC2)c1 [Compound 4r] :: loss of potency
